Measured values drawn from ChEMBL document CHEMBL1142747 for this set.

MEASUREMENT NOTES: Half life of ECA-ATL in buffer at pH 7.4
Type: ADME
PARAMETER MEASURED: half-life

Below, each entry is followed by its recorded half-life result.
* C=C(CC)C(=O)c1ccc(OCC(=O)OCCOCCOCCOCCOCCOCCO)c(Cl)c1Cl | 120 h
* C=C(CC)C(=O)c1ccc(OCC(=O)OC(CNC(C)C)COc2ccc(CC(N)=O)cc2)c(Cl)c1Cl (centres undefined) | 14 h
* C=C(CC)C(=O)c1ccc(OCC(=O)OCCOCCOCCOCCO)c(Cl)c1Cl | 130 h

Problem: Could you tell me which half-life is on file for C=C(CC)C(=O)c1ccc(OCC(=O)OCCOCCO)c(Cl)c1Cl ?
Result: 110 h

* * *

MEASUREMENT NOTES: Half life of ECA-ATL in serum
Type: ADME, cell-free
CONDITION: human
PARAMETER MEASURED: half-life

Problem: Which half-life is listed for C=C(CC)C(=O)c1ccc(OCC(=O)OC(CNC(C)C)COc2ccc(CC(N)=O)cc2)c(Cl)c1Cl (centres undefined) ?
Result: 30 min

Problem: Tell me the measured half-life of C=C(CC)C(=O)c1ccc(OCC(=O)OCCOCCO)c(Cl)c1Cl , please.
Result: < 2 min

Problem: I have this compound here, C=C(CC)C(=O)c1ccc(OCC(=O)OCCOCCOCCOCCOCCOCCO)c(Cl)c1Cl , and I need its recorded half-life.
Result: < 2 min

Problem: Name the reported half-life value associated with the compound C=C(CC)C(=O)c1ccc(OCC(=O)OCCOCCOCCOCCO)c(Cl)c1Cl
Result: < 2 min
